Test system: 677734-321-R-J1-PDC complex spheroid viability;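 further: spheroids exposed to compounds for one week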
Assay: Anticancer human tumor 677734-321-R-J1-PDC patient-derived soft tissue sarcoma cell line growth inhibition [POLQ]
Details: second compound 3.16 µM; first compound 1 µM; active compounds read low
Satisfied if viability, T/C is below 10%. Not satisfied if not; exact matches included in Not satisfied.

In: Below 10% on viability, T/C? Entry O=C(c1cc(Cc2n[nH]c(=O)c3ccccc23)ccc1F)N1CCN(C(=O)C2CC2)CC1 + COC1C(OC(N)=O)C(O)C(Oc2ccc3c(O)c(NC(=O)c4ccc(O)c(CC=C(C)C)c4)c(=O)oc3c2C)OC1(C)C
Out: Not satisfied

In: Moving on to CC1COCCN1c1cc(-c2ccnn2C)c2ccnc(-c3ccn[nH]3)c2n1 (stereo unspecified) + Nc1ccc(C#CCN(C(=O)Cc2ncc(C(F)(F)F)cc2C(F)(F)F)c2ccc(F)cc2)nn1
Out: Satisfied

In: Moving on to CCCS(=O)(=O)Nc1ccc(F)c(C(=O)c2c[nH]c3ncc(-c4ccc(Cl)cc4)cc23)c1F + Nc1ccc(C#CCN(C(=O)Cc2ncc(C(F)(F)F)cc2C(F)(F)F)c2ccc(F)cc2)nn1
Out: Not satisfied

In: Moving on to CC1COCCN1c1cc(-c2ccnn2C)c2ccnc(-c3ccn[nH]3)c2n1 (stereo unspecified) + COC1C(OC(N)=O)C(O)C(Oc2ccc3c(O)c(NC(=O)c4ccc(O)c(CC=C(C)C)c4)c(=O)oc3c2C)OC1(C)C
Out: Not satisfied

In: Moving on to Nc1ccn(C2OC(CO)C(O)C2(F)F)c(=O)n1 (stereo unspecified) + COC1C(OC(N)=O)C(O)C(Oc2ccc3c(O)c(NC(=O)c4ccc(O)c(CC=C(C)C)c4)c(=O)oc3c2C)OC1(C)C
Out: Not satisfied

In: Moving on to CC1COCCN1c1cc(C2(S(C)(=N)=O)CC2)nc(-c2ccnc3[nH]ccc23)n1 (stereo unspecified) + Nc1ccc(C#CCN(C(=O)Cc2ncc(C(F)(F)F)cc2C(F)(F)F)c2ccc(F)cc2)nn1
Out: Not satisfied

In: Moving on to O=c1[nH]cc(F)c(=O)[nH]1 + COC1C(OC(N)=O)C(O)C(Oc2ccc3c(O)c(NC(=O)c4ccc(O)c(CC=C(C)C)c4)c(=O)oc3c2C)OC1(C)C
Out: Not satisfied

In: Moving on to COc1cccc(OCCCN)c1-c1cc(Nc2cnc(C#N)cn2)n[nH]1 + Cc1cccc(N(C)C(=O)C2C(O)CCN2c2nc(C)cc(C(F)(F)F)c2C#N)c1
Out: Satisfied

In: Moving on to O=C(Nc1ccc(O)c(NS(=O)(=O)c2ccc(F)cc2)c1)c1ccc(-c2ccccc2)cc1 + Nc1ccc(C#CCN(C(=O)Cc2ncc(C(F)(F)F)cc2C(F)(F)F)c2ccc(F)cc2)nn1
Out: Not satisfied

In: Moving on to COc1cccc2c1C(=O)c1c(O)c3c(c(O)c1C2=O)CC(O)(C(=O)CO)CC3OC1CC(N)C(O)C(C)O1 (stereo unspecified) + COC1C(OC(N)=O)C(O)C(Oc2ccc3c(O)c(NC(=O)c4ccc(O)c(CC=C(C)C)c4)c(=O)oc3c2C)OC1(C)C
Out: Satisfied

In: Moving on to CCc1c2c(nc3ccc(O)cc13)-c1cc3c(c(=O)n1C2)COC(=O)[C@]3(O)CC + Cc1cccc(N(C)C(=O)C2C(O)CCN2c2nc(C)cc(C(F)(F)F)c2C#N)c1
Out: Satisfied
